- Tested on: Enterococcus faecium MDR Van A ATCC 51559
- assay text: MIC assay, E. faecium MDR Van A ATCC 51559
- Format: cell-based
- measurement setup: 24 h incubation, visual reading
measured parameter: Minimum Inhibitory Concentration (MIC) E. faecium ATCC51559

# substance smiles, result
records = [
    ("CCCCCCCC(=O)N[C@@H](CCCCN)C(=O)NCCNC(=O)[C@H]1NC(=O)[C@H]2NC(=O)[C@H](NC(=O)[C@@H]3NC(=O)[C@H](CC(N)=O)NC(=O)[C@H](NC(=O)[C@@H](CC(C)C)NC)[C@H](O)c4ccc(c(Cl)c4)Oc4cc3cc(c4O[C@@H]3O[C@H](CO)[C@@H](O)[C@H](O)[C@H]3O[C@H]3C[C@](C)(N)[C@H](O)[C@H](C)O3)Oc3ccc(cc3Cl)[C@H]2O)c2ccc(O)c(c2)-c2c(O)cc(O)cc21", "x (x = >4)"),
    ("CCCCCCCCC(=O)N[C@@H](CCCNC(=N)N)C(=O)N[C@@H](CCCCNC(=O)[C@H]1NC(=O)[C@H]2NC(=O)[C@H](NC(=O)[C@@H]3NC(=O)[C@H](CC(N)=O)NC(=O)[C@H](NC(=O)[C@@H](CC(C)C)NC)[C@H](O)c4ccc(c(Cl)c4)Oc4cc3cc(c4O[C@@H]3O[C@H](CO)[C@@H](O)[C@H](O)[C@H]3O[C@H]3C[C@](C)(N)[C@H](O)[C@H](C)O3)Oc3ccc(cc3Cl)[C@H]2O)c2ccc(O)c(c2)-c2c(O)cc(O)cc21)C(=O)O", "x (x = >4)"),
]

----------
- System: Enterococcus faecium MDR Van A ATCC 51559
- assay text: MIC assay, E. faecium MDR Van A ATCC 51559
- Assay type: cell-based
- measurement setup: 24 h incubation, visual reading
measured parameter: Minimum Inhibitory Concentration (MIC) E. faecium ATCC51559

# molecule, target under test, result
measured = [
    ("CCCCCCCCCCC(=O)N[C@@H](CCCCN)C(=O)N[C@@H](CCCCNC(=O)[C@H]1NC(=O)[C@H]2NC(=O)[C@H](NC(=O)[C@@H]3NC(=O)[C@H](CC(N)=O)NC(=O)[C@H](NC(=O)[C@@H](CC(C)C)NC)[C@H](O)c4ccc(c(Cl)c4)Oc4cc3cc(c4O[C@@H]3O[C@H](CO)[C@@H](O)[C@H](O)[C@H]3O[C@H]3C[C@](C)(N)[C@H](O)[C@H](C)O3)Oc3ccc(cc3Cl)[C@H]2O)c2ccc(O)c(c2)-c2c(O)cc(O)cc21)C(N)=O", "Enterococcus faecium MDR Van A ATCC 51559", "x (x = >4)"),
    ("CNC(=O)C(CCCCNC(=O)C1NC(=O)C2NC(=O)C(NC(=O)C3NC(=O)C(CC(N)=O)NC(=O)C(NC(=O)C(CC(C)C)NC)C(O)c4ccc(c(Cl)c4)Oc4cc3cc(c4OC3OC(CO)C(O)C(O)C3OC3CC(C)(N)C(O)C(C)O3)Oc3ccc(cc3Cl)C2O)c2ccc(O)c(c2)-c2c(O)cc(O)cc21)NC(=O)C(CCCCN)NC(=O)C(CCCCN)NC(=O)Cc1ccc(-c2ccccc2)cc1 (centres unmarked)", "Enterococcus faecium MDR Van A ATCC 51559", "x (x = >4)"),
]

----------
- assay text: Stability of compounds in human plasma
- measurement setup: 24 h, 50% human plasma/PBS pH 7.4, 37° C.
measured parameter: % compound remaining after incubation in 50% human plasma (%)
Report the value in % with no unit label.

q: Look up % compound remaining after incubation in 50% human plasma: CN[C@H](CC(C)C)C(=O)N[C@H]1C(=O)N[C@@H](CC(N)=O)C(=O)N[C@H]2C(=O)N[C@H]3C(=O)NC(C(=O)N[C@H](C(=O)O)c4cc(O)cc(O)c4-c4cc3ccc4O)[C@H](O)c3ccc(c(Cl)c3)Oc3cc2cc(c3OC2OC(CO)C(O)C(O)C2OC2CC(C)(N)C(O)C(C)O2)Oc2ccc(cc2Cl)[C@H]1O (stereo partly shown) [MCC_000095, vancomycin, reference compound]
a: 65

----------
- Tested on: Enterococcus faecium MDR Van A ATCC 51559
- assay text: MIC assay, E. faecium MDR Van A ATCC 51559
- Type: cell-based
- measurement setup: 24 h incubation, visual reading
measured parameter: Minimum Inhibitory Concentration (MIC) E. faecium ATCC51559

# compound, result
data = [
    ("CCCCCCCCC(=O)N[C@@H](CCCCN)C(=O)N[C@@H](CCCCN)C(=O)N[C@@H](CCCCNC(=O)[C@H]1NC(=O)[C@H]2NC(=O)[C@H](NC(=O)[C@@H]3NC(=O)[C@H](CC(N)=O)NC(=O)[C@H](NC(=O)[C@@H](CC(C)C)NC)[C@H](O)c4ccc(c(Cl)c4)Oc4cc3cc(c4O[C@@H]3O[C@H](CO)[C@@H](O)[C@H](O)[C@H]3O[C@H]3C[C@](C)(N)[C@H](O)[C@H](C)O3)Oc3ccc(cc3Cl)[C@H]2O)c2ccc(O)c(c2)-c2c(O)cc(O)cc21)C(=O)O", "x (x = >4)"),
    ("CCC(=O)N[C@@H](CCCCN)C(=O)N[C@@H](CCCCN)C(=O)N[C@@H](CCCCNC(=O)[C@H]1NC(=O)[C@H]2NC(=O)[C@H](NC(=O)[C@@H]3NC(=O)[C@H](CC(N)=O)NC(=O)[C@H](NC(=O)[C@@H](CC(C)C)NC)[C@H](O)c4ccc(c(Cl)c4)Oc4cc3cc(c4O[C@@H]3O[C@H](CO)[C@@H](O)[C@H](O)[C@H]3O[C@H]3C[C@](C)(N)[C@H](O)[C@H](C)O3)Oc3ccc(cc3Cl)[C@H]2O)c2ccc(O)c(c2)-c2c(O)cc(O)cc21)C(=O)O", "x (x = >4)"),
    ("CCCCCCC(CCCC)C(=O)NC(CCCCN)C(=O)NC(CCCCN)C(=O)NC(CCCCNC(=O)C1NC(=O)C2NC(=O)C(NC(=O)C3NC(=O)C(CC(N)=O)NC(=O)C(NC(=O)C(CC(C)C)NC)C(O)c4ccc(c(Cl)c4)Oc4cc3cc(c4OC3OC(CO)C(O)C(O)C3OC3CC(C)(N)C(O)C(C)O3)Oc3ccc(cc3Cl)C2O)c2ccc(O)c(c2)-c2c(O)cc(O)cc21)C(=O)NC (centres unmarked)", "x (x = >4)"),
]

----------
- Test system: Enterococcus faecium MDR Van A ATCC 51559
- assay text: MIC assay, E. faecium MDR Van A ATCC 51559
- Format: cell-based
- measurement setup: 24 h incubation, visual reading
measured parameter: Minimum Inhibitory Concentration (MIC) E. faecium ATCC51559

# molecule, result
rows = [
    ("CCCCCCCCCCC(=O)N[C@@H](CCCCN)C(=O)N[C@@H](CCCCN)C(=O)N[C@@H](CCCCNC(=O)[C@H]1NC(=O)[C@H]2NC(=O)[C@H](NC(=O)[C@@H]3NC(=O)[C@H](CC(N)=O)NC(=O)[C@H](NC(=O)[C@@H](CC(C)C)NC)[C@H](O)c4ccc(c(Cl)c4)Oc4cc3cc(c4O[C@@H]3O[C@H](CO)[C@@H](O)[C@H](O)[C@H]3O[C@H]3C[C@](C)(N)[C@H](O)[C@H](C)O3)Oc3ccc(cc3Cl)[C@H]2O)c2ccc(O)c(c2)-c2c(O)cc(O)cc21)C(=O)O [MCC_000174]", "x (x = >4)"),
    ("CNC(=O)C(CCCCNC(=O)C1NC(=O)C2NC(=O)C(NC(=O)C3NC(=O)C(CC(N)=O)NC(=O)C(NC(=O)C(CC(C)C)NC)C(O)c4ccc(c(Cl)c4)Oc4cc3cc(c4OC3OC(CO)C(O)C(O)C3OC3CC(C)(N)C(O)C(C)O3)Oc3ccc(cc3Cl)C2O)c2ccc(O)c(c2)-c2c(O)cc(O)cc21)NC(=O)C(CCCCN)NC(=O)C(CCCCN)NC(=O)CCCCCc1ccccc1 (stereo not drawn) [MCC_000507]", "x (x = >4)"),
]

----------
- System: Enterococcus faecium MDR Van A ATCC 51559
- assay text: MIC assay, E. faecium MDR Van A ATCC 51559
- Type: cell-based
- measurement setup: 24 h incubation, visual reading
measured parameter: Minimum Inhibitory Concentration (MIC) E. faecium ATCC51559

# compound, result
data = [
    ("CCCCCCCCCCC(=O)N[C@@H](CCCCN)C(=O)N[C@@H](CCCCN)C(=O)N[C@@H](CCCCNC(=O)[C@H]1NC(=O)[C@H]2NC(=O)[C@H](NC(=O)[C@@H]3NC(=O)[C@H](CC(N)=O)NC(=O)[C@H](NC(=O)[C@@H](CC(C)C)NC)[C@H](O)c4ccc(c(Cl)c4)Oc4cc3cc(c4O[C@@H]3O[C@H](CO)[C@@H](O)[C@H](O)[C@H]3O[C@H]3C[C@](C)(N)[C@H](O)[C@H](C)O3)Oc3ccc(cc3Cl)[C@H]2O)c2ccc(O)c(c2)-c2c(O)cc(O)cc21)C(=O)NC", "xx (xx = 1-4)"),
    ("CCCCCCCCCCC(=O)NC(CCCCN(C)C)C(=O)NCCCNC(=O)C1NC(=O)C2NC(=O)C(NC(=O)C3NC(=O)C(CC(N)=O)NC(=O)C(NC(=O)C(CC(C)C)NC)C(O)c4ccc(c(Cl)c4)Oc4cc3cc(c4OC3OC(CO)C(O)C(O)C3OC3CC(C)(N)C(O)C(C)O3)Oc3ccc(cc3Cl)C2O)c2ccc(O)c(c2)-c2c(O)cc(O)cc21 (centres unmarked)", "xx (xx = 1-4)"),
]
